Cited source: the Immune Epitope Database (IEDB)

Recorded pKd, one value per entry.
system: HLA-A*30:01
assay: IEDB peptide-MHC binding, purified MHC/competitive/radioactivity; filed as Kd, often an IC50 or EC50 that approximates it; bounds were set here for any values at or beyond the usual limits of such assays
assay_setup: source organism: Dengue virus 4 Philippines/H241/1956
pKd: −log10 of the molar value.

{"sequence_content": "CRSCTMPPLR", "pKd": 5.82}
{"sequence_content": "LRVLSIPPTA", "pKd": 5.46}
{"sequence_content": "KGKRALAPPV", "pKd": 8.64}
{"sequence_content": "CTREEFISK", "pKd": 7.68}

----------
system: HLA-A*26:01
assay: IEDB peptide-MHC binding, purified MHC/direct/fluorescence; filed as Kd, often an IC50 or EC50 that approximates it; bounds were set here for any values at or beyond the usual limits of such assays
assay_setup: source organism: Yersinia enterocolitica subsp. enterocolitica 8081

{"sequence_content": "LAYLAGWII", "system": "HLA-A*26:01", "Kd": "≥ 20 µM"}
